Where a name gives a salt, the structure may show the parent alone.

>  <COMPOUND>
CN(C)c1nnc(CCCC2C3CCCN4CCCC(CN2Cc2ccccc2)C34)s1 (centres unmarked) (as salt: hydrochloride) [Compound 6k]

>  <melting point>
189 to 190 °C

$$$$
>  <COMPOUND>
Cc1ccc(S(=O)(=O)N2CC3CCCN4CCCC(C34)C2CCCc2nnc(NC(C)C)s2)cc1 (centres unmarked) [Compound 6c]

>  <melting point>
193 to 194 °C

$$$$
>  <COMPOUND>
Nc1nnc(CCCC2C3CCCN4CCCC(CN2S(=O)(=O)c2ccc(C(F)(F)F)cc2)C34)s1 (centres unmarked) [Compound 6f]

>  <melting point>
206 °C (dec.)

$$$$
>  <COMPOUND>
Nc1nnc(CCCC2C3CCCN4CCCC(CN2Cc2ccc(Br)cc2)C34)s1 (centres unmarked) [Compound 6o]

>  <melting point>
193 to 194 °C

$$$$
>  <COMPOUND>
CNc1nnc(CCCC2C3CCCN4CCCC(CN2Cc2ccccc2)C34)s1 (centres unmarked) [Compound 6j]

>  <melting point>
137 to 138 °C

$$$$
>  <COMPOUND>
CC(=O)Nc1nnc(CCCC2C3CCCN4CCCC(CN2Cc2ccc(C)cc2)C34)s1 (centres unmarked) [Compound 7d]

>  <melting point>
226 °C (dec.)

$$$$
>  <COMPOUND>
Cc1ccc(S(=O)(=O)N2CC3CCCN4CCCC(C34)C2CCCc2nnc(N)s2)cc1 (centres unmarked) [Compound 6a]

>  <melting point>
237 °C (dec.)

$$$$
>  <COMPOUND>
O=C(O)CCCC1C2CCCN3CCCC(CN1Cc1ccc(Br)cc1)C23 (centres unmarked) [Compound 5d, 12-N-p-Bromobenzyl matrinic acid]

>  <melting point>
134 to 135 °C

$$$$
